// data source = patent US20230203029A1

- experimental target: human AXL cytoplasmic domain (Homo sapiens)
- Construct: human AXL cytoplasmic domain (Thermo Fisher A31515); purchased Thermo Fisher A31515
- Sequence (P30530 473-894 limits assumed): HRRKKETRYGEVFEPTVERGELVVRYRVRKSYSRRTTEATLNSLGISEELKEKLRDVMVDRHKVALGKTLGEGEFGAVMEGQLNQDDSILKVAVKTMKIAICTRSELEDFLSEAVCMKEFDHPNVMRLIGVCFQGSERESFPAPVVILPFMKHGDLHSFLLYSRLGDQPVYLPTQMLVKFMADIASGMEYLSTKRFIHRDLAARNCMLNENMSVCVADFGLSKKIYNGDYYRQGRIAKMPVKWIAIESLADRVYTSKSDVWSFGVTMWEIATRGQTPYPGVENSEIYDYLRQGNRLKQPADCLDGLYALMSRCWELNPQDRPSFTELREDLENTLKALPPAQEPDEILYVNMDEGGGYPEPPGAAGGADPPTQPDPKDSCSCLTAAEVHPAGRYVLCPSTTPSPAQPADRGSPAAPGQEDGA
- assay comment: Assay 1b AXL HTRF KinEASE-TK assay
- Format: biochemical
property name: IC50 (nM)

| compound | IC50 / nM |
| --- | --- |
| O=C(Nc1ccc(Oc2ccnc3cnc(N4CCNCC4)cc23)cc1)c1cn(C2CC2)c(=O)n(-c2ccc(F)cc2)c1=O [Example 36] | 5 |
| CC(C)n1cc(C(=O)Nc2ccc(Oc3ccnc4cnc(C(=O)NC5CCN(C)CC5)cc34)cc2)c(=O)n(-c2ccc(F)cn2)c1=O [Example 9] | 11 |
| C[C@H](CO)n1cc(C(=O)Nc2ccc(Oc3ccnc4cnc(C(=O)NC5CCN(C)CC5)cc34)cc2)c(=O)n(-c2ccc(F)cc2)c1=O [Example 14] | 10 |
| CN1CCC(NC(=O)c2cc3c(Oc4ccc(NC(=O)c5cccn(-c6ccccc6)c5=O)cc4F)ccnc3cn2)CC1 [Example 33] | 38 |
| CC(C)C(=O)N1CCC(c2cc3c(Oc4ccc(NC(=O)c5cccn(-c6ccc(F)cc6)c5=O)nc4)ccnc3cn2)CC1 [Example 22] | 5 |

I. O=C(Nc1ccc(Oc2ccnc3cnc(N4CCN(C5COC5)CC4)cc23)cn1)c1ccnn(-c2ccc(F)cc2)c1=O [Example 20]
II. Cc1cc(NC(=O)c2cccn(-c3ccc(F)cc3)c2=O)ncc1Oc1ccnc2cnc(C(=O)NC3CCN(C)CC3)cc12 [Example 25]
Could you point out whether the larger IC50 belongs to I or to II ? Pick one and reply with its label. II
(II: 76 nM, I: 7 nM)

----------
- experimental target: recombinant human AXL expressed in live cells (HEK, AXL-Nanoluc fusion vector) (Homo sapiens, UniProt P30530)
- Construct: host or cells: HEK
- Sequence (P30530 26-894): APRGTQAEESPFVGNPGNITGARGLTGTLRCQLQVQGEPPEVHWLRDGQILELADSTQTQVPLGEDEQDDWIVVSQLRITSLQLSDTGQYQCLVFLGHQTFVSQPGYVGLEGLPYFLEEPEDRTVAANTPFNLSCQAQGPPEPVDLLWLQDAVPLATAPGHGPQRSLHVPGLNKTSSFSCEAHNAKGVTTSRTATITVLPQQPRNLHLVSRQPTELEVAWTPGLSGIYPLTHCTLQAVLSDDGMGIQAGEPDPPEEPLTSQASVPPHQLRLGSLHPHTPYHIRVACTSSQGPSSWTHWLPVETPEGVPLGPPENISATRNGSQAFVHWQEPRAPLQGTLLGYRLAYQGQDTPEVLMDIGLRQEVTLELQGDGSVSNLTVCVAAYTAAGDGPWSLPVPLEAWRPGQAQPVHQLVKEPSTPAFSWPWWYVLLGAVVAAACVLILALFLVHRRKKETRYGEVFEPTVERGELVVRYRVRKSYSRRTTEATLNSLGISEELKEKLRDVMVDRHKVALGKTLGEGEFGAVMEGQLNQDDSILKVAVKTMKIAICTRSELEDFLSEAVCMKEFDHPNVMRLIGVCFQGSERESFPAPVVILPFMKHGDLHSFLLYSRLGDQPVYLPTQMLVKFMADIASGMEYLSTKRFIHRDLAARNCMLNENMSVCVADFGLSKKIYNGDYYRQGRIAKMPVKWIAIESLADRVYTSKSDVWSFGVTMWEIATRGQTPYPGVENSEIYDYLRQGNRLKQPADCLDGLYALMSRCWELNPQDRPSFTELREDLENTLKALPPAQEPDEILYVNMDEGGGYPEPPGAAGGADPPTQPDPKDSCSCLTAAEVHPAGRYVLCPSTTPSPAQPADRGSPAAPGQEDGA
- assay comment: Assay 3 AXL cellular target engagement (NanoBRET TE) assay
- Type: cell-based
- experimental parameters: HEK cells, tracer K5, 2 h at 37° C.; read-out: Assay 3 Cell TE Axl IC50
pIC50: −log10 of the molar value.
property name: pIC50

| smiles representation | pIC50 |
| --- | --- |
| O=C(Nc1ccc(Oc2ccnc3cnc(N4CCNCC4)cc23)cn1)c1cccn(-c2ccccc2)c1=O | 6.90 |
| O=C(Nc1ccc(Oc2ccnc3cnc(N4CCNCC4)cc23)cc1)c1cccn(-c2ccccc2)c1=O | 6.94 |

----------
- experimental target: human MERTK cytoplasmic domain (Homo sapiens, UniProt Q12866)
- Construct: human MERTK cytoplasmic domain (Carna Biosciences 08-108); purchased Carna Biosciences 08-108
- Sequence (Q12866 527-999): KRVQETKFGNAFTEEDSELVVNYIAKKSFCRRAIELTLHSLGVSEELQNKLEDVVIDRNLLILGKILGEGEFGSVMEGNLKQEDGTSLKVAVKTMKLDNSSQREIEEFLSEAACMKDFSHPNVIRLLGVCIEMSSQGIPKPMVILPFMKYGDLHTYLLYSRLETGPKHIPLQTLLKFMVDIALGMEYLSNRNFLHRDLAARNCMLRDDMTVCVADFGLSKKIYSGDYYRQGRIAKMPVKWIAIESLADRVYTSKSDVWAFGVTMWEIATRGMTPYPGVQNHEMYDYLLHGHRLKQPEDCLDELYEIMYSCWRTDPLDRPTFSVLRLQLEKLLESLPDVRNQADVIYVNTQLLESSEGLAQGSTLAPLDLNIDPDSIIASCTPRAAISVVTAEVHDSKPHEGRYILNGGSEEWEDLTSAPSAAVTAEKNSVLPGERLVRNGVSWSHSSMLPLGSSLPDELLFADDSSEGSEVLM
- assay comment: biochemical
- experimental parameters: 30 uM ATP; read-out: Assay 1a Mer IC50 30 uM ATP
property name: IC50 (µM)

A selection of reference data follows.
| compound | uom | IC50 |
| --- | --- | --- |
| CN1CCN(c2cc3c(Oc4ccc(NC(=O)c5cccn(-c6ccc(F)cc6)c5=O)nc4)ccnc3cn2)CC1 | µM | 0.006 |
| O=C(NOCCO)c1cc2c(Nc3ccc(NC(=O)c4cccn(-c5ccccc5)c4=O)cc3)ccnc2cn1 | µM | 0.07 |
| CC(C)(C)OC(=O)N1CCC(c2cc3c(Oc4ccc(NC(=O)c5cccn(-c6ccc(F)cc6)c5=O)nc4)ccnc3cn2)CC1 | µM | 0.013 |
| CC(C)n1cc(C(=O)Nc2ccc(Oc3ccnc4cnc(C(=O)NCCN(C)C)cc34)cn2)c(=O)n(-c2ccc(F)cc2)c1=O | µM | 0.031 |
| CC(C)n1cc(C(=O)Nc2ccc(Oc3ccnc4cnc(N5CCNCC5)cc34)cc2)c(=O)n(-c2ccc(F)cn2)c1=O | µM | 0.008 |
| O=C(Nc1ccc(Nc2ccnc3cnc(N4CCNCC4)cc23)cc1)c1cccn(-c2ccccc2)c1=O | µM | 0.068 |
| Cc1c(C(=O)Nc2ccc(Nc3ccnc4cnc(N5CCNCC5)cc34)cc2)c(=O)n(-c2ccccc2)n1C | µM | 0.033 |
| Cn1cc(C(=O)Nc2ccc(Oc3ccnc4cnc(N5CCNCC5)cc34)cc2)c(=O)c(-c2ccc(F)cc2)c1 | µM | 0.004 |
| CC(C)(C)OC(=O)N1CCC(c2cc3c(Oc4ccc(NC(=O)c5cccn(-c6ccc(F)cc6)c5=O)nc4)ccnc3cn2)C1 (centres unmarked) | µM | 0.004 |

I. CN1CCC(NC(=O)c2cc3c(Oc4ccc(NC(=O)c5cccn(-c6ccccc6)c5=O)nc4)ccnc3cn2)CC1
II. O=C(Nc1ccc(Oc2ccnc3cnc(N4CCNCC4)cc23)cc1)c1cccc(-c2ccc(F)cc2)[n+]1[O-]
III. CC(C)n1cc(C(=O)Nc2ccc(Oc3ccnc4cnc(C(=O)NC5CC6CCC(C5)N6C)cc34)cn2)c(=O)n(-c2ccc(F)cc2)c1=O (centres unmarked)
IV. O=C(Nc1ccc(Oc2ccnc3cnc(N4CCNCC4)cc23)cn1)c1cccn(-c2ccc(F)cc2)c1=O
V. O=C(Nc1ccc(Oc2ccnc3cnc(C4CCNCC4)cc23)cn1)c1cccn(-c2ccc(F)cc2)c1=O
Sort entries by IC50 from minimum to maximum value. Provide the ranking by listing each label in its place in the requested order. II, IV, V, III, I
(II: 0.003 µM, IV: 0.005 µM, V: 0.009 µM, III: 0.017 µM, I: 0.031 µM)
